- Run description: amyloid nucleation score (Sup35N fusion, yeast selection) (log enrichment); library NNK2; higher = more nucleation; inactive = no reads after selection;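 further: zero at mode of non-aggregating sequences after 7 days selection at 30°C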
Measurement kind: amyloid nucleation score
Give the value as a plain number.

Record excerpt, results attached:
Prompt: Item under review: HAVDTHFADRGSLALKYSKC . Reported amyloid nucleation score?
Response: 1.19

Prompt: Look at this substance and give its reported amyloid nucleation score. WWRRRCR
Response: 0.224

Prompt: Recorded amyloid nucleation score for RFLSYTSCLEMIVFCGRVQG , please?
Response: 0.207

***
Prompt: Fill in: amyloid nucleation score of IDRCGTLVTPDGINGRVTRV is ___
Response: 0.951

Prompt: Return reported amyloid nucleation score; argument: VKEYYSTGSTWRLYWMWSDW
Response: 0.282

Prompt: // query amyloid nucleation score value for entry HLNCISRGPMWLNDRMCQCP
Response: 1.76
